survival overview
# Tested on: Wild type
# protocol-details: S. aureus survival, RN4220 and DeltatarO strains – OD600, teichoic acid synthesis inhibitors, primary screen (AID 463173)
# stated-conditions: S. aureus RN4220 wild type/DeltatarO growth, OD600, 18 h, stronger effect = lower value, screened at 18.75 µg/mL (by protocol)
Hit rate of the full screen: of about 52,000 compounds, about 1,700 (3.3%) were called active. The full list was thinned out, with actives kept by preference.

[
  {
    "compound": "Cc1ccc(C)c(N2CCN(S(=O)(=O)c3ccc(F)c(C(=O)Nc4ccc(Cl)cc4Cl)c3)CC2)c1",
    "survival / %": 80
  },
  {
    "compound": "Cc1ccnc(NC(c2cccc(O)c2)c2ccc3ccc(C)nc3c2O)c1 (stereo unspecified)",
    "survival / %": 74
  },
  {
    "compound": "CCOc1ccccc1CNS(=O)(=O)c1ccc2[nH]c(=O)ccc2c1",
    "survival / %": 71
  },
  {
    "compound": "Cc1ccc(C(Nc2ccccn2)c2ccc3cccnc3c2O)cc1 (stereo unspecified)",
    "survival / %": 6
  },
  {
    "compound": "CCOc1cc(C(Nc2cc(C)ccn2)c2ccc3cccnc3c2O)ccc1OC (stereo unspecified)",
    "survival / %": 145
  },
  {
    "compound": "Cc1ccnc(NC(c2cc(C)ccc2O)c2ccc3cccnc3c2O)c1 (stereo unspecified)",
    "survival / %": 3
  },
  {
    "compound": "COc1ccc(CNC(=O)C(Cc2ccccc2)NS(=O)(=O)c2ccc3c(c2)CCN3C(C)=O)cc1 (stereo unspecified)",
    "survival / %": 127
  },
  {
    "compound": "COc1ccccc1N1CCN(c2nc(-c3ccc(C)cc3)nc3ccccc23)CC1",
    "survival / %": 72
  },
  {
    "compound": "Cc1cccc(-c2nc(N3CCN(c4ccc(F)cc4)CC3)c3ccccc3n2)c1",
    "survival / %": 64
  },
  {
    "compound": "CC1(C(=O)O)CCC(C(=O)N2CCCCC2)C1(C)C (stereo unspecified)",
    "survival / %": 106
  },
  {
    "compound": "CC1(C)CC(=O)c2cc(C(=O)Nc3ccc(Br)cc3)c(=O)n(-c3ccc(Cl)cc3)c2C1",
    "survival / %": 74
  },
  {
    "compound": "O=C(CSc1ncccn1)NCCC1=CCCCC1",
    "survival / %": 112
  },
  {
    "compound": "CC(=O)c1cc2c(cc1N/C(=N/S(=O)(=O)c1ccc(Cl)cc1)c1ccc(F)cc1)OCO2",
    "survival / %": 80
  },
  {
    "compound": "Cc1ccccc1C(=O)Nc1c(C)nc2ccccn2c1=O",
    "survival / %": 10
  },
  {
    "compound": "CC1CCCN(c2csc3ccccc3c2=O)C1 (stereo unspecified)",
    "survival / %": 97
  },
  {
    "compound": "Cc1cc(F)ccc1NC(=O)Cn1cc(S(=O)(=O)NC(C)C)c(S(=O)(=O)NC(C)C)c1",
    "survival / %": 73
  },
  {
    "compound": "CC(=O)c1cc2c(cc1N/C(=N/S(=O)(=O)c1ccc(C)cc1)c1ccc(Cl)cc1)OCO2",
    "survival / %": 10
  },
  {
    "compound": "Cc1ccc2ccc(C(Nc3ccccn3)c3ccccc3)c(O)c2n1 (stereo unspecified)",
    "survival / %": 69
  },
  {
    "compound": "COC(=O)C1(c2ccccc2)NC(c2ccc(O)cc2)C2C(=O)N(c3ccc4c(c3)OCCO4)C(=O)C21 (stereo unspecified)",
    "survival / %": 106
  },
  {
    "compound": "Cc1ccc(C)c(N2CCN(c3nc4ccccc4c(=O)n3-c3ccc(Cl)cc3)CC2)c1",
    "survival / %": 78
  },
  {
    "compound": "COc1cc(-c2nnn(CC(=O)Nc3ccc(OC(F)(F)F)cc3)n2)cc(OC)c1OC",
    "survival / %": 92
  },
  {
    "compound": "Cc1cc(C)nc(NS(=O)(=O)c2ccc(NC(=O)c3ccccc3O)cc2)n1",
    "survival / %": 127
  },
  {
    "compound": "CC(C)N1CCc2nc(SCC(=O)Nc3cccc(F)c3)[nH]c(=O)c2C1",
    "survival / %": 83
  },
  {
    "compound": "Cc1cccc(OCC(=O)OCc2cc(=O)n3nc(C4CCCCC4)sc3n2)c1",
    "survival / %": 100
  },
  {
    "compound": "Cc1ccc(C(=O)Nc2c(C)nc3ccccn3c2=O)cc1",
    "survival / %": 88
  },
  {
    "compound": "CCOc1ccc(OCC)c(NS(=O)(=O)c2ccc3[nH]c(=O)ccc3c2)c1",
    "survival / %": 0
  },
  {
    "compound": "O=C(Cn1nc(-c2ccc(Cl)cc2)c2ccccc2c1=O)Nc1cccc(C(F)(F)F)c1",
    "survival / %": 71
  },
  {
    "compound": "Cn1cc(S(=O)(=O)N2CCCCC2)cc1C(=O)NCc1ccc(Cl)cc1",
    "survival / %": 88
  },
  {
    "compound": "CCN(CC)C(=O)c1ccc(Nc2nnc(-c3ccc(C)c(S(=O)(=O)NC)c3)c3ccccc23)cc1",
    "survival / %": 79
  },
  {
    "compound": "Cc1cccc(NC(c2cccc(Cl)c2)c2ccc3cccnc3c2O)n1 (stereo unspecified)",
    "survival / %": 4
  },
  {
    "compound": "CCc1nn2c(=O)cc(COC(=O)C3CCCCC3)nc2s1",
    "survival / %": 72
  },
  {
    "compound": "CNS(=O)(=O)c1cn(CC(=O)Nc2ccc(F)cc2F)cc1S(=O)(=O)NC",
    "survival / %": -3
  },
  {
    "compound": "Cc1ccc(-n2nc(C)c3c(C)cc(=O)n(CC(=O)NC(C)c4ccccc4)c32)cc1 (stereo unspecified)",
    "survival / %": 143
  },
  {
    "compound": "Cc1ccc(Cn2c(C)c3cnn(CC(=O)N4CCN(c5cc(C)ccc5C)CC4)c(=O)c3c2C)cc1",
    "survival / %": 65
  },
  {
    "compound": "CC(=O)c1cc2c(cc1N/C(=N/S(=O)(=O)c1ccccc1)c1ccc(Cl)cc1)OCO2",
    "survival / %": -2
  },
  {
    "compound": "COc1ccc(N2CC3=C(C2=O)C(c2ccc(Br)cc2)NC(=O)N3C)cc1 (stereo unspecified)",
    "survival / %": 156
  },
  {
    "compound": "CC(C)c1ccc(Nc2c(-c3ccsc3)nc3ccc(Cl)cn23)cc1",
    "survival / %": 95
  },
  {
    "compound": "Cc1cccc(CN2C(=O)CC(c3ccc(Cl)cc3)c3c(C)nn(-c4nc(C)cc(C)n4)c32)c1 (stereo unspecified)",
    "survival / %": 76
  },
  {
    "compound": "Cc1cccc(N2CCN(S(=O)(=O)c3ccc(F)c(C(=O)Nc4cccc(Cl)c4C)c3)CC2C)c1 (stereo unspecified)",
    "survival / %": 100
  },
  {
    "compound": "Cc1ccc(N2CCN(S(=O)(=O)c3ccc(F)c(C(=O)Nc4ccc(Cl)cc4Cl)c3)CC2C)cc1 (stereo unspecified)",
    "survival / %": -6
  },
  {
    "compound": "CCOc1ccc(CNS(=O)(=O)c2ccc3[nH]c(=O)ccc3c2)cc1",
    "survival / %": 80
  }
]
